Taken from PubChem BioAssay (NCI).

System: HS 578T breast
measurement.description: NCI tumour cell line growth inhibition, 48 h
Give measured TGI for each item. Keep answers brief.

Here is how some compounds turned out for TGI.
O=C(O)CC1NC(/C(=C/c2ccccc2)NC(=O)c2ccccc2)OC1=O (stereo not given)    > 100 µM
O=c1c2sc(=S)n(-c3ccc(F)cc3)c2ncn1Cc1ccc(F)cc1F    > 100 µM
COc1ccc(/C=C(/C(=O)N2CCN(c3ccccc3)CC2)c2cc(OC)c(OC)c(OC)c2)cc1O    > 100 µM
COc1ccc(N2C(=O)C(=O)N(c3ccccc3[N+](=O)[O-])C2=S)cc1    84 µM

As a next step, examine the compound that follows.
INPUT: Field request: TGI | item: "C1C2CC3CC1CC(Nc1nc(NC45CC6CC(CC(C6)C4)C5)nc(NC45CC6CC(CC(C6)C4)C5)n1)(C2)C3"
OUTPUT: > 100 µM

====

System: HCC-2998 colon
measurement.description: NCI tumour cell line growth inhibition, 48 h
Record form. Attribute: GI50. Fill in for each entry.

O=C(OC(CNc1cc(=O)n(Cc2ccccc2)c(=O)n1Cc1ccccc1)CN1CCCC1)c1ccccc1 (stereo not given)    > 100 µM
CC(C)CCN1c2nc(Nc3cc(F)c(O)c(F)c3)ncc2N(C)C(=O)C1C (stereo not given)    3.54 µM
O=C1/C(=C/c2ccc(Br)cc2)COc2ccc(O)c(O)c21    1.54 µM

Kindly give each listed record's GI50.
1. Cn1nc(N)c2cc([C@@H]3Nc4ccc5[nH]ncc5c4[C@H]4C5CCC(C5)[C@@H]34)ccc21 (stereo not given in full)
2. CCN1CCN(C(c2ccc(C(F)(F)F)cc2)c2ccc3cccnc3c2O)CC1 (stereo not given)

OUTPUT:
["1.5 µM", "0.88 µM"]

// for each molecule below, give its GI50
1. C=C1C(=O)O[C@@H]2C[C@@H]1CC/C(C)=C/CC/C(C)=C/CC[C@@]2(C)O
2. COc1ccc(CN2C(=O)/C(=C\C(=O)c3ccc(OCCN4CCCCC4)cc3)c3ccccc32)cc1
3. Oc1cn(-c2ccc(Cl)cc2)nc1-c1nnc(-c2ccccc2)o1
4. COc1cnc2c(c1)C(=O)c1c-2n(CCCNC(C)C)c(=O)c2cc(Cl)ccc12

OUTPUT:
14 µM
2.4 µM
0.739 µM
1.37 µM

INPUT: Sample "O=c1c2sc(=S)n(-c3ccc(F)cc3)c2ncn1Cc1ccc(F)cc1F" — what was its GI50?
OUTPUT: > 100 µM

====

Test system: NCI-H460 lung
measurement.description: NCI tumour cell line growth inhibition, 48 h
reported.property: TGI (µM)
Numbers only, in µM.

Examples with answers:
CCOC(=O)C1=C(C)N(Cc2ccc(Cl)cc2Cl)C2(O)C=CC(=O)C3C(=O)N(c4ccccc4)C(=O)C132 (stereo not given)    5.77
COc1cc2cc3c4c(cc(OC)c(OC)c4c2cc1OC)CCN3C(=O)OCCN1CCNCC1    26.6
CCN(CC)c1ccc2c(c1)OC(N)=C(C#N)C2c1cc(OC)c2c(c1)OCO2 (stereo not given)    0.503
CCN(CC)CCOc1ccc(-c2nc3cc(Cl)ccc3s2)cc1    2.93

# context switch: different molecule, same TGI
INPUT: What measured TGI is associated with CC1=CC(C)C/C=C/C2C3OC3(C)C(C)C3C(Cc4c[nH]c5ccccc45)NC(=O)C23C(=O)C=CC(=O)C1O (stereo not given) on NCI-H460 lung?
OUTPUT: 27.6
